Origin of values: patent US20200045967A1

test: Log P by HPLC on reversed phase columns (EEC directive 79/831 Annex V.A8); assay type: physicochemical; conditions: method [a]: LC-UV, acidic range, 0.1% formic acid in water and acetonitrile, compounds of formula (V)

Smiles input | chromatographic logP
CSc1ccc(Oc2ccc(C(C)=O)c(C(F)(F)F)n2)cc1 | 3.7
CC(=O)c1ccc(Oc2ccc(C3OCCO3)cc2)nc1C(F)(F)F | 2.98

----------
Catalogue of molecules with associated chromatographic logP
assay: Log P by HPLC on reversed phase columns (EEC directive 79/831 Annex V.A8); type: physicochemical; conditions: method [a]: LC-UV, acidic range, 0.1% formic acid in water and acetonitrile, compounds of formula (VII)
Assay endpoint: chromatographic logP

Smiles input | Assay value
C#Cc1ccc(Oc2ccc(C(=O)Cn3cncn3)c(C(F)(F)F)n2)cc1 | 2.63
CSc1ccc(Oc2ccc(C(=O)Cn3cncn3)c(C(F)(F)F)n2)cc1 | 2.92
O=Cc1ccc(Oc2ccc(C(=O)Cn3cncn3)c(C(F)(F)F)n2)cc1 | 2.12

----------
test: Log P by HPLC on reversed phase columns (EEC directive 79/831 Annex V.A8); type: physicochemical; details: method [a]: LC-UV, acidic range, 0.1% formic acid in water and acetonitrile, compounds of formula (I)
Catalogue of compounds with associated chromatographic logP

Compound | chromatographic logP
ON=Cc1ccc(Oc2ccc(C(O)Cn3cncn3)c(C(F)(F)F)n2)cc1 (stereo not shown) | 2.26
O=Cc1ccc(Oc2ccc(C(O)Cn3cncn3)c(C(F)(F)F)n2)cc1 (stereo not shown) | 1.91
CSc1ccc(Oc2ccc(C(O)Cn3cncn3)c(C(F)(F)F)n2)cc1 (stereo not shown) | 2.59
CSc1ccc(Oc2ccc(C(C)(O)Cn3cncn3)c(C(F)(F)F)n2)cc1 (stereo not shown) | 2.74
